Quick reference for fold change of affinity among some binders
target: T1, Human CD137 ECD (human); experiment: Biacore SPR, vs parent H183/L072
T1 construct: entry includes C-terminal His-tag and biotin acceptor peptide; also called human CD137 extracellular domain; 4-1BB
T1 sequence (chain, as listed by the source limits assumed): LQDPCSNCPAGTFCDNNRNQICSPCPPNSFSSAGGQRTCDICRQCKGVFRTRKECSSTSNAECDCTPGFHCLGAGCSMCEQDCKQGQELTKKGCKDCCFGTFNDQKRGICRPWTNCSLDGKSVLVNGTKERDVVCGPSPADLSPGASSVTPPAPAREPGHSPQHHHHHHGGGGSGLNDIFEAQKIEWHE
Give a bare numeral; the unit fold is implied.

Binder | fold change of affinity [fold]
H183/L072 VL Q24D (antibody, name in Kabat numbering, V domains shown, Dual-Ig) VH: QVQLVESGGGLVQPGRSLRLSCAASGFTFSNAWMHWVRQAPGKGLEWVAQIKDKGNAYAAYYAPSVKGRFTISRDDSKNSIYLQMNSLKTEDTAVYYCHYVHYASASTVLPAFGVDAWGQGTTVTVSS VL: DIVMTQSPLSLPVTPGEPASISCDASQELVHMNRNTYLHWYQQKPGQAPRLLIYKVSNRFPGVPDRFSGSGSGTDFTLKISRVEAEDVGVYYCAQGTSVPFTFGQGTKLEIK | 0.9

Read the next record carefully.
Prompt: I would be grateful if you could share the reported fold change of affinity for H183/L072 VL A25T (antibody, name in Kabat numbering, V domains shown, Dual-Ig) VH: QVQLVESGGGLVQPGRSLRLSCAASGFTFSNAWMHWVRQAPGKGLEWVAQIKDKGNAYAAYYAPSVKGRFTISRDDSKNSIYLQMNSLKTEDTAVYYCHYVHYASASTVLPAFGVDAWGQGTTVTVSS VL: DIVMTQSPLSLPVTPGEPASISCQTSQELVHMNRNTYLHWYQQKPGQAPRLLIYKVSNRFPGVPDRFSGSGSGTDFTLKISRVEAEDVGVYYCAQGTSVPFTFGQGTKLEIK .
Response: 0.7
